- Test system: Hymenobacter 1 (Hymenobacter glaciei)
- Test Details: relative growth (AUC of 72 h growth curve relative to DMSO control, dAUC) (ratio); higher = more growth (less inhibition), active = hit call of the paper
- Condition Parameters: 20 µM
Entry flag: rule met if relative growth reaches 1; rule not met if it does not.

Examples from the recorded data:
CCc1cc(C)cc(CC)c1-c1c(OC(=O)C(C)(C)C)n2n(c1=O)CCOCC2; rule not met
CC(C1CC1)C(O)(Cn1cncn1)c1ccc(Cl)cc1 (stereo not drawn); rule met

Is it the case that COCC(C)N(C(=O)CCl)c1c(C)csc1C (stereo not drawn) has relative growth reaching or exceeding 1?
rule not met

Entry to check: "CO/N=C(/C(=O)OC)c1ccccc1CO/N=C(\C)c1cccc(C(F)(F)F)c1"
rule met

Entry to check: "Nc1c(Cl)c(F)nc(OCC(=O)O)c1Cl"
rule met

Entry to check: "Cc1cc(C(F)(C(F)(F)F)C(F)(F)F)ccc1NC(=O)c1cccc(I)c1C(=O)NC(C)(C)CS(C)(=O)=O"
rule not met

Entry to check: C#CCOc1ccc(CCNC(=O)C(OCC#C)c2ccc(Cl)cc2)cc1OC (stereo not drawn)
rule met

---

- Tested on: Aeromonas 1 (Aeromonas sp. AE235)
- Test Details: relative growth (AUC of 72 h growth curve relative to DMSO control, dAUC) (ratio); higher = more growth (less inhibition), active = hit call of the paper
- Condition Parameters: 20 µM
Examples of compounds with documented relative growth follow.
A bare number is all that is needed in reply.

Check out these entries, answers already filled in.
N#Cc1c[nH]cc1-c1cccc2c1OC(F)(F)O2; 0.982
CCC(C)(C)C(=O)OC1=C(c2ccc(Cl)cc2Cl)C(=O)OC12CCCCC2; 0.99
OC(Cn1cncn1)(c1ccc(F)cc1)c1ccccc1F (stereo not drawn); 0.996

Notebook: pull reported relative growth for Aeromonas 1 (Aeromonas sp. AE235), entry "Cc1cc(C(F)(C(F)(F)F)C(F)(F)F)ccc1NC(=O)c1cccc(I)c1C(=O)NC(C)(C)CS(C)(=O)=O"
0.939

Entry to check: "COP(=S)(OC)Oc1nc(Cl)c(Cl)cc1Cl"
1.04

Entry to check: "CCCCc1c(C)nc(NCC)nc1OS(=O)(=O)N(C)C"
0.942

Entry to check: "CSc1nnc(C(C)(C)C)c(=O)n1N"
0.969

Entry to check: "O=C1c2ccccc2C(=O)N1SC(Cl)(Cl)Cl"
1.04

Entry to check: "N#Cc1sc2c(=O)c3ccccc3c(=O)c=2sc1C#N"
0.852

---

- System: Aeromonas 2 (Aeromonas sobria)
- Test Details: relative growth (AUC of 72 h growth curve relative to DMSO control, dAUC) (ratio); higher = more growth (less inhibition), active = hit call of the paper
- Condition Parameters: 20 µM
Result Type: relative growth
A bare number is all that is needed in reply.

CON(C)C(=O)Nc1ccc(Cl)c(Cl)c1; 0.996

The record that follows has no relative growth shown yet.
If you can, please state the reported relative growth value of "CCC(CC)Nc1c([N+](=O)[O-])cc(C)c(C)c1[N+](=O)[O-]" .
0.973

---

Examples of compounds with documented relative growth follow.
- System: Pseudomonas 4 (Pseudomonas peli)
- Test Details: relative growth (AUC of 72 h growth curve relative to DMSO control, dAUC) (ratio); higher = more growth (less inhibition), active = hit call of the paper
- Condition Parameters: 20 µM
A bare number is all that is needed in reply.

Check out these entries, answers already filled in.
CC1(C)[C@H](/C=C(\Cl)C(F)(F)F)[C@@H]1C(=O)OC(C#N)c1cccc(Oc2ccccc2)c1 (stereo not given in full); 0.999
N#CCNC(=O)c1cnccc1C(F)(F)F; 0.996
CC(C)N(C(=O)COc1nnc(C(F)(F)F)s1)c1ccc(F)cc1; 0.983
COc1cc(C)c(C(=O)c2c(OC)ccc(Br)c2C)c(OC)c1OC; 1.02
Nc1c(Cl)c(F)nc(OCC(=O)O)c1Cl; 1.04

Notebook: pull reported relative growth for Pseudomonas 4 (Pseudomonas peli), entry COCc1cnc(C2=NC(C)(C(C)C)C(=O)N2)c(C(=O)O)c1 (stereo not given)
0.974

Entry to check: C#CCOc1ccc(CCNC(=O)C(OCC#C)c2ccc(Cl)cc2)cc1OC (stereo not given)
0.992
